- measured-on: His-tagged human recombinant DDR-2 kinase domain (His-TEV-DDR2 467-855 aa) (Homo sapiens)
- Construct: His-TEV-DDR2 467-855 aa
- Sequence (Q16832 467-855): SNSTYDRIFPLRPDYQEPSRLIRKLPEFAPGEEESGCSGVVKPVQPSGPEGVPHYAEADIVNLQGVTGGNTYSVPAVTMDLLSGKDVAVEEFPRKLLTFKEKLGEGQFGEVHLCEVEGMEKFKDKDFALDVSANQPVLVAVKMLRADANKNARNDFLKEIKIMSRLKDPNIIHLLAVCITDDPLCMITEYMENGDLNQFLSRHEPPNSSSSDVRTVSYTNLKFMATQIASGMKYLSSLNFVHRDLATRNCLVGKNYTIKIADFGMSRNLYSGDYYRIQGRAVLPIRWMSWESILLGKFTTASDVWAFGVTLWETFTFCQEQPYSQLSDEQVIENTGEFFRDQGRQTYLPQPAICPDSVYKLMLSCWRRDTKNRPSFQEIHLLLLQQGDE
- protocol-notes: Autophosphorylation assay for biochemical activity testing of DDR2 (HTRF)
- condition-description: 4 nM DDR2 kinase domain, 150 μM ATP, 150 min at 22° C.
result-type: IC50 (nM)

# molecule-smiles, IC50 [nM]
data = [
    ("CNC(=O)c1cc(Oc2ccc(CNC(=O)Nc3ccnc(Cl)c3)cc2)ccn1", 1000),
]

I: CNC(=O)c1cc(Oc2ccc(CNC(=O)Nc3ccc(OC)nc3)cc2)ccn1
II: CNC(=O)c1cc(Oc2ccc(CNC(=O)Nc3cc(Cl)cnc3OC)cc2C)ccn1
Hi there, can you help? I need to know whether I or II has lower measured IC50. Reply briefly: the label of your chosen item.
II
(II: 37 nM, I: 5600 nM)

---

- measured-on: His-tagged human recombinant DDR-2 kinase domain (His-TEV-DDR2 467-855 aa) (Homo sapiens)
- Construct: His-TEV-DDR2 467-855 aa
- protocol-notes: Autophosphorylation assay for biochemical activity testing of DDR2 (HTRF)
- condition-description: biochemical DDR2 autophosphorylation
result-type: IC50 (nM)

a: CNC(=O)c1cc(Oc2ccc(CNC(=O)Nc3cc4ccccc4nc3OC)cc2)ccn1
b: CNC(=O)c1cc(Oc2ccc(CNC(=O)Nc3cc(Cl)c(C)cc3OC)cc2F)ccn1
Would you let me know which has the greater IC50 value, a or b ? Reply briefly: the label of your chosen item.
a

---

- measured-on: His-tagged human recombinant DDR-2 kinase domain (His-TEV-DDR2 467-855 aa) (Homo sapiens, UniProt Q16832)
- Construct: His-TEV-DDR2 467-855 aa
- Sequence (Q16832 467-855): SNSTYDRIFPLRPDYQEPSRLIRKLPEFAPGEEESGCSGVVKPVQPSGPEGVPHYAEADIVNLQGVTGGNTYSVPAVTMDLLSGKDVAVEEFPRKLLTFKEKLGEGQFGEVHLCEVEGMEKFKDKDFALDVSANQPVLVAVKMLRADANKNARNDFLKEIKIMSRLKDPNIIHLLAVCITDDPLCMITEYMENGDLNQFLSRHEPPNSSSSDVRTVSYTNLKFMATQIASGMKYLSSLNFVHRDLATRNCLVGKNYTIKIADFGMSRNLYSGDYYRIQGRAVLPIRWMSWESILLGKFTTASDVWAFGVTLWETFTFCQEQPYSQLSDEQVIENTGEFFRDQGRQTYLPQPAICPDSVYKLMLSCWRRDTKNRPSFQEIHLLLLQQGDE
- protocol-notes: Autophosphorylation assay for biochemical activity testing of DDR2 (HTRF)
- condition-description: biochemical DDR2 autophosphorylation
result-type: IC50 (nM)

Please review the entries below; each comes with its answer.
# compound, quantitative-result
rows = [
    ("O=C(NCc1ccc(Oc2ccncc2)cc1)Nc1ccc(C(F)(F)F)cc1", 2000),
    ("CNC(=O)c1cc(Oc2ccc(CNC(=O)Nc3cc(C(F)(F)F)c(Cl)cc3OCCN3CCOCC3)cc2)ccn1", 96),
    ("CNC(=O)c1cc(Oc2ccc(CNC(=O)Nc3cc(C)c(Cl)cc3OCCCN(C)C)cc2C)ccn1", 40),
    ("CNC(=O)c1cc(Oc2ccc(C(C)NC(=O)Nc3cc(Cl)ccc3OC)cc2)ccn1 (stereo not shown)", 340),
    ("O=C(NCc1ccc(Oc2ccncc2)cc1)Nc1ccc(Cl)cc1Cl", 1400),
    ("CNCCOc1cc(Cl)c(C(F)(F)F)cc1NC(=O)NCc1ccc(Oc2ccnc(C(=O)NC)c2)cc1", 47),
]

a: CNCCOc1cc(C)c(Cl)cc1NC(=O)NCc1ccc(Oc2ccnc(C(=O)NC)c2)cc1
b: CNC(=O)c1cc(Oc2ccc(CNC(=O)Nc3cc(C)ccn3)cc2C)ccn1
Hi there, can you help? I need to know whether a or b has lower measured IC50. Reply briefly: the label of your chosen item.
a

A: CNC(=O)c1cc(Oc2ccc(CNC(=O)Nc3cc(C)c(Cl)cc3OCCN3CCNCC3)cc2)ccn1
B: CNC(=O)c1cc(Oc2ccc(CNC(=O)Nc3cc(C(F)(F)F)ccc3OC)cc2F)ccn1
Hi there, can you help? I need to know whether A or B has lower measured IC50. Reply briefly: the label of your chosen item.
B
(B: 21 nM, A: 176 nM)
